# SYSTEM UNDER TEST: Xanthine dehydrogenase/oxidase (Bos taurus, UniProt P80457)
# Sequence (P80457 whole entry): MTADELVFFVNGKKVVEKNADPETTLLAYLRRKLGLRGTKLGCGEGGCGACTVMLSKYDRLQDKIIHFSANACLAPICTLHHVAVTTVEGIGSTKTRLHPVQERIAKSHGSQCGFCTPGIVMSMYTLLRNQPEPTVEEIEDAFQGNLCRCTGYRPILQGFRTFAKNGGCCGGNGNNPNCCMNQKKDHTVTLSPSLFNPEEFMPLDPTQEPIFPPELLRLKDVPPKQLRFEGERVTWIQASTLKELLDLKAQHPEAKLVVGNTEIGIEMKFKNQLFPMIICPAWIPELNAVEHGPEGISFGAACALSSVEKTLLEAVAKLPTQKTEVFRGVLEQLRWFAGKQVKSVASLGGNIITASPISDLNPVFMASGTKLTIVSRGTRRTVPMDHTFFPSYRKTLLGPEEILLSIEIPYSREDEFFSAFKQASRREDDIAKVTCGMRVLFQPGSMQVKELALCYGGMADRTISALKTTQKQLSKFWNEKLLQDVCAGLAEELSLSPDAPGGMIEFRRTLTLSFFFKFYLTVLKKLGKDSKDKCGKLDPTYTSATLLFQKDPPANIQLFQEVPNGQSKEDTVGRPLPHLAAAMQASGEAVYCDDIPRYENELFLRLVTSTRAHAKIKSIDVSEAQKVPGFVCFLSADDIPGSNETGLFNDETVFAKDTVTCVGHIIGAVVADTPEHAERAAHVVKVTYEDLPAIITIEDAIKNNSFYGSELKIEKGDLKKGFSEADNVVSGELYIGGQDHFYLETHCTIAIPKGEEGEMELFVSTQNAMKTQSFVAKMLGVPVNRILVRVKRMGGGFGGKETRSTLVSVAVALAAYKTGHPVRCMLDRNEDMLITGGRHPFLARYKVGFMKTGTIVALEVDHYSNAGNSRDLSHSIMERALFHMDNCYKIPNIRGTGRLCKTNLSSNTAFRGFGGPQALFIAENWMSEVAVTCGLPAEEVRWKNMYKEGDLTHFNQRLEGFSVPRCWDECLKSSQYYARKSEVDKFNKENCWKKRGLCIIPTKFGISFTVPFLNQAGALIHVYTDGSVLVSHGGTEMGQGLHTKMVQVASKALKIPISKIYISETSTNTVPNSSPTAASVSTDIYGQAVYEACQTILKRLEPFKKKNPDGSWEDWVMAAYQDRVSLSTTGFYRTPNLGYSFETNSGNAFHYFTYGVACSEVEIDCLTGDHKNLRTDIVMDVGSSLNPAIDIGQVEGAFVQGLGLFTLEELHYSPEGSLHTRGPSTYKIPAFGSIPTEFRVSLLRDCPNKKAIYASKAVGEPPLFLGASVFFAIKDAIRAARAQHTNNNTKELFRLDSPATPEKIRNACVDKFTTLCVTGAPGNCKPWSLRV
# ASSAY: Inhibition of bovine xanthine oxidase assessed as reduction in uric acid formation at 1 uM using xanthine as substrate pretreated for 5 mins followed by substrate addition measured by UV-vis spectrophotometric method relative to control
# STATED CONDITIONS: cattle
Reported values of inhibition at 1 µM for individual entries
TEST READOUT: inhibition at 1 µM (%)

> print(dat)
                                   compound  observed
1  COc1ccc(Nc2ncnc3c2C(c2ccc(O)c(O)c2)c2c(n[nH]c2C)O3)cc1 (stereo not given)      23.5
2  COc1ccc(Nc2ncnc3c2C(c2ccc([N+](=O)[O-])cc2)C2=C(CCCC2=O)O3)cc1 (stereo not given)        20
3  COc1ccc(Nc2ncnc3c2C(c2cccc([N+](=O)[O-])c2)C2=C(CCCC2=O)O3)cc1 (stereo not given)      21.9
4  COc1ccc(Nc2ncnc3c2C(c2ccc(Br)cc2)C2=C(CCCC2=O)O3)cc1 (stereo not given)      23.1
5  COc1ccc(Nc2ncnc3c2C(c2cccc(O)c2)c2c(c(=O)oc4ccccc24)O3)cc1 (stereo not given)      28.5

Numbers sourced from ChEMBL document CHEMBL4011597.
